Biological target: NLRP3 (Homo sapiens, UniProt Q96P20)
Sequence (Q96P20 whole entry): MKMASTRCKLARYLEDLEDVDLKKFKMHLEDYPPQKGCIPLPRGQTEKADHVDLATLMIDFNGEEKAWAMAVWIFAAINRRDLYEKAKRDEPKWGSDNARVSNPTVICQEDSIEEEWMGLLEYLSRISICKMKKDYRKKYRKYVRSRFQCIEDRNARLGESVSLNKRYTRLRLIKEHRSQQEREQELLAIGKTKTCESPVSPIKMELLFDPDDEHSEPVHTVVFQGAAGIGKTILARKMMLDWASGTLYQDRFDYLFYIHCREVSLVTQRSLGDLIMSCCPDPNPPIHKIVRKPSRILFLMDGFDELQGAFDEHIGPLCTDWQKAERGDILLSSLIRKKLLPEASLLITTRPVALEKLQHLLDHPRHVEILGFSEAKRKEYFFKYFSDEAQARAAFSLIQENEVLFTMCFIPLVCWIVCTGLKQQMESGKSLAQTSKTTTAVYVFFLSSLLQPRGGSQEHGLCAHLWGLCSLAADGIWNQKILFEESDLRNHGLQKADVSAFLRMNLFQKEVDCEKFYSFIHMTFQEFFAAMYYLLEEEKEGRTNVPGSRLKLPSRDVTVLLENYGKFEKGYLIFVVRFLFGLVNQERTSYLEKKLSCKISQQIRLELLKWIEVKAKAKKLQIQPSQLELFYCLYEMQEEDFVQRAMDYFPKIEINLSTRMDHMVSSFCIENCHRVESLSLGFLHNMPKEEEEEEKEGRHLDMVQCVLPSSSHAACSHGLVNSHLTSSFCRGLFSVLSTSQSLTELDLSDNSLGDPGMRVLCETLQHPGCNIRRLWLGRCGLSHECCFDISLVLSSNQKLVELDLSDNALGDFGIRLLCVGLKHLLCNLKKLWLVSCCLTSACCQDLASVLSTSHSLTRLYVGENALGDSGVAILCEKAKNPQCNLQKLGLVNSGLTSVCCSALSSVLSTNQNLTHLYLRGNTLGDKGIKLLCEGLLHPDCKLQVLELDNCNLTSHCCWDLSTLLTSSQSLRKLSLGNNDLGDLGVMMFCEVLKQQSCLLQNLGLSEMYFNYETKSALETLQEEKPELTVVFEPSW
Assay: THP-1 cells pyroptosis assay
Type: cell-based
Design: Seed THP-1 cells (25,000 cells/well) containing 1.0 μg/ml LPS in 40 μl of RPMI medium; host or cells: THP-1 cells, LPS-primed, nigericin-stimulated
Details: THP-1 cells with 1.0 μg/ml LPS, compound 3 hours, nigericin 5 μM 1 hr, resazurin readout
Where a name gives a salt, the structure may show the parent alone.
readout.name: IC50 (nM)

molecule="Cc1cc(Cl)cc(O)c1-c1ccc2oc(N3CCc4n[nH]cc4C3)nc2n1 [Example 25]" readout_name=IC50 test_result=25.6
molecule="OCc1cc(Cl)cc(O)c1-c1cnc2oc(N3Cc4ccncc4C3)nc2n1 [Example 30]" readout_name=IC50 test_result=24.8
molecule="Cc1cc(Cl)cc(O)c1-c1ccc2oc(N3CCc4nccnc4C3)nc2n1 [Example 40]" readout_name=IC50 test_result=71.6
molecule="Cc1cc(C(F)(F)F)cc(O)c1-c1ccc2oc(N3CCc4cc(=O)[nH]cc4C3)nc2n1 [Example 19]" readout_name=IC50 test_result=11.1
molecule="Cc1cc(C#N)cc(O)c1-c1ccc2oc(N3CCc4ncncc4C3)nc2n1 [Example 17]" readout_name=IC50 test_result=34.9
molecule="Cc1cc(Cl)cc(O)c1-c1ccc2oc(N3Cc4cncnc4C3)nc2n1 [Example 13, formic acid salt]" readout_name=IC50 test_result=15
molecule="Cc1cc(C#N)cc(O)c1-c1ccc2oc(N3Cc4ccncc4C3)nc2n1 [Example 10]" readout_name=IC50 test_result=29
molecule="Cc1cc(Cl)cc(O)c1-c1ccc2oc(N3CCc4cc(=O)[nH]cc4C3)nc2n1 [Example 27]" readout_name=IC50 test_result=52.2
